These entries and their values trace back to patent US20200109188A1.

Neutralization IC50, H1-NJ76 reference
MEASURED_ON: HA of A/New Jersey/8/76 (H1N1) virus (influenza A virus)
ASSAY_OVERVIEW: cell-based or functional assay

BINDER: Antibody 8 (antibody, V domains shown) VH: QVQLQQSGPGLVKPSQTLSLTCVISGDTVSSNRATWNWMRQSPLRGLEWLGRTYYRSKWYNDYAVSVKSRVVINPDTSKNQVSLQLNTVTPDDSGVYFCARGGHITVFGVNIDAFDIWGLGTKVTVSS VL: DIQMTQSPSSLSASVGDRVTISCRASQRLNSYLHWYQQTPGQAPKLLIYATSTLQSGVSPRFSGSGSGTDFTLTISSLQPEDVATYYCQLSRTFGHGTKVEIK
UNIT_ABBREV: µg/mL
Neutralization IC50, H1-NJ76: 2.26
--
BINDER: Antibody 10 (antibody, V domains shown) VH: QVQLQQSGPGLVKPSQTLSLTCAISGDSVSSNSATWNWIRQSPSRGLEWLGRTYYRSKWYNDYADFLKRRITINPDTSNNEVSLRLTSVTPDDTALYYCARGGHITVFGVNIDAFDVWGQGTMVTVSS VL: DIQMTQSPSSLSASVGDRITISCRTSQSLRSYLHWYQQKPGKAPKLLIYASSTLQSGVPSRFSGSGSGTDFTLTISNLQPEDFATYYCQLSRTFGQGTKVEIK
UNIT_ABBREV: µg/mL
Neutralization IC50, H1-NJ76: 0.15
--
BINDER: Antibody 5 (antibody, V domains shown) VH: QVQLQQSGPGLVKPSQTLSLTCAISGDRVSSNSAVWNWIRQSPSRGLEWLGRTYYRSKWYYDYAESVKSRIVIDPDTSKNQVSLQLNSVTPEDSAIYYCARGGHITVFGLNIDAYDIWGQGAMVTVSS VL: DIQMTQSPSSLSASVGDRVTISCRAQSLSSYLHWYQQKPGQPPKLLIYAATTLQSGVPSRFSGSGSGTDFTLTISTFQAEDVATYYCQQSRTFGQGTKVEIK
UNIT_ABBREV: µg/mL
Neutralization IC50, H1-NJ76: 1.64
--
BINDER: Antibody 6 (antibody, V domains shown) VH: QVQLQQSGPGLVKPSQTLSLTCAISGDRVSSNSAVWNWIRQSPSRGLEWLGRTYYRSKWYYDYAESVKSRIVIDPDTSKNQVSLQLNSVTPEDSAIYYCARGGHITEFGLNIDAYDIWGQGAMVTVSS VL: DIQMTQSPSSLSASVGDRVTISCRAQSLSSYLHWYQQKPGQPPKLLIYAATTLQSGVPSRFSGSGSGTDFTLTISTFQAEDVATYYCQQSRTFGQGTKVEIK
UNIT_ABBREV: µg/mL
Neutralization IC50, H1-NJ76: 2.6
--
BINDER: Antibody 3 (antibody, V domains shown) VH: QVQLQESGPGLVKPSQTLSLTCAISGDSVSSNNAVWNWIRQSPSRGLEWLGRTYYRSKWYNDYAESVKSRITVNPDTSKNQFSLHLKSVTPEDTAVFYCVRSGHITVFGVNVDAFDMWGQGTMVTVSS VL: DIQMTQSPSSLSASVGDRVTITCRTSQSLSSYLHWYQQKPGKAPKLLIYAASSLQSGVPSRFSGSGSGTDFTLTISSLQPEDFATYYCQQSRTFGQGTKVEIK
UNIT_ABBREV: µg/mL
Neutralization IC50, H1-NJ76: 1.41
